Target: T1, recombinant human LAG3 expressed with a C-terminal mouse IgG2a mFc tag (human)
T1 construct: Called dimeric; also called hLAG3-mFc; hLAG3 dimer
T1 chain: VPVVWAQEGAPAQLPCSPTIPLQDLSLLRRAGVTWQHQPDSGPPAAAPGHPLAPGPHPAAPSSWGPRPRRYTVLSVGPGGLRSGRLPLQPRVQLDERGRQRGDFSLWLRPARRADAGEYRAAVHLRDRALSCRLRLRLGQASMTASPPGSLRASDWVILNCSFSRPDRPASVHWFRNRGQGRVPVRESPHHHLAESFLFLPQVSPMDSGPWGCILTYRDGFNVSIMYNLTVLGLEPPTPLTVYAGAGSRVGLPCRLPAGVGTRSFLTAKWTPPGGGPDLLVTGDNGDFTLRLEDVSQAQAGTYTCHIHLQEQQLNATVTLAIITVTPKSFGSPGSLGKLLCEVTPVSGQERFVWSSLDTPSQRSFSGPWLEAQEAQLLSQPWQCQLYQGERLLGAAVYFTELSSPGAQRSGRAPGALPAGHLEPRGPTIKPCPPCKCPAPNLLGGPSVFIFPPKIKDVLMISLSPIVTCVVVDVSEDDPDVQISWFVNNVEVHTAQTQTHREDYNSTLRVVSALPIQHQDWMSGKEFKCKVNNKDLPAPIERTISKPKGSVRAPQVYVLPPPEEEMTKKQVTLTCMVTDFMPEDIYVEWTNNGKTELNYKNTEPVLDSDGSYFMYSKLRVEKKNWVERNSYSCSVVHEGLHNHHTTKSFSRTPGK
Test: SPR, mAb captured, 25 C
Measured metric: koff (s⁻¹)
// units = s⁻¹; emit number, no label

{"Binder": "H4H17823P (antibody, human IgG4, V domains shown, H4H = human IgG4 Fc with S108P hinge mutation) VH: EVQLLESGGGLVQPGGSLRLSCAASGFTFRSYAMSWVRQAPGKGLEWVSVISGGGGRTYYTDSVKGRFTISRDNSKSMLYLQMNSLRAEDTAIYYCAKERVTGIDHYYYGVDVWGQGTTVTVSS VL: DIQMTQSPSSLSASVGDRVTITCRASQSISSYLNWYQQKPGKAPKLLIYATSSLQSGVPSRFSGSASGTDFTLAISSLQPEDFATYYCQQSYTTPLTFGGGTKVEIK", "koff [s⁻¹]": 0.000218}

Enquiry: Value lookup for koff; key = H4sH14813N (antibody, human IgG4 S228P, kappa, V domains shown, H4sH = modified human IgG4 Fc) VH: QVQLQQWGAGLLKPSETLSLTCAVYGGSFSGYYWNWIRQPPGKGLEWVGEISHRGSTNYNPSLKSRVTISLDTSKNQFSLKLTSVTAADTAVYYCSRDEELEFRFFDYWGQGTLVTVSS VL: EIVLTQSPATLSLSPGERATLSCRASQSVSSYLAWYQQKPGQAPRLLVYGASNRATGIPARFSGSGSGTDFTLTISSLEPEDFAFYYCQQRSNWPLTFGGGTKVEIKR
Return: 1.9e-05

Enquiry: And H4H17819P (antibody, human IgG4, V domains shown, H4H = human IgG4 Fc with S108P hinge mutation) VH: EVQLVESGGGLVQPGGSLRLSCVASGFTFSLYAMTWVRQVPGKGLEWVSTISGSGGGTYYTDSVKGRFTISRDNSKNTLYLQMNSLRADDTAVFYCTKESTTGTYSYFYGMDVWGQGTTVTVSS VL: DIQMTQSPSSLSASVGDRVTITCRASQTISSYLNWYQQKPGKAPKLLIYAASSLQSGVPSRFSGSGSGTDFTLTLSGLQPEDFATYYCQQSYSTPLTFGGGTKVEIK ?
Return: 0.00018
